Biological target: SARS-COV-2 RBD extracellular domain expressed with a C-terminal myc-myc-hexahistidine tag (SARS-COV-2 RBD-mmH) (SARS-CoV-2)
Experiment: SPR Biacore, mAb captured on anti-hFc, RBD-mmH analyte, 37 C
The following binders are listed with their measured koff values.
Provide only the numeric value, understood in s⁻¹.

Solved cases (2 shown):
INSERT INTO results (binder, data_value) VALUES
  ('mAb14315 (antibody, V domains shown) VH: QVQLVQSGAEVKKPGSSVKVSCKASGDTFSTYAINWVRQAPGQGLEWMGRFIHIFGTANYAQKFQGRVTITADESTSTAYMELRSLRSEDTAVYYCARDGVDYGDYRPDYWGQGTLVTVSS VL: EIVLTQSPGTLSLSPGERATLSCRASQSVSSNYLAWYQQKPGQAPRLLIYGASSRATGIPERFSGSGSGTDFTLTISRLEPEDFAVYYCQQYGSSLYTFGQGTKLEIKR', 0.000985),
  ('mAb14282 (antibody, V domains shown) VH: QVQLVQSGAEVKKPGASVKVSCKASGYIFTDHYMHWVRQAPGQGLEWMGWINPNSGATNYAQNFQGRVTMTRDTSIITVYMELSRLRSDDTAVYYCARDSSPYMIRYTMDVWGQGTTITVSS VL: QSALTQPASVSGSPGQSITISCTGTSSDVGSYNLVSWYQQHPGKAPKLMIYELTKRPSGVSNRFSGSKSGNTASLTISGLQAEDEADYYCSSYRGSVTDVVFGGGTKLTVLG', 0.0106);

Would you kindly look at the next entry?
Ask | Return reported koff. Input binder: mAb14235 (antibody, V domains shown) VH: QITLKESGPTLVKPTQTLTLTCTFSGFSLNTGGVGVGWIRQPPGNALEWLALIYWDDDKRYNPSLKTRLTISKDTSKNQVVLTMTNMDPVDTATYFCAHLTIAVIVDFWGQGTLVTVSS VL: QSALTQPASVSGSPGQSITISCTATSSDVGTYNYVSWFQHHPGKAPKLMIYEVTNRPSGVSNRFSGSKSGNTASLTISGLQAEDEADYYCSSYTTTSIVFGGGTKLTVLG
Reply | 0.00109
